B1: INTS3 (parent)
chain: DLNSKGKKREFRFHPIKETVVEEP

- Variants of: B1
- ASSAY_NOTES: protein stability index of a GFP-peptide fusion (GPS, HEK-293T) (PSI 1-6); higher = more stable;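 also: lentivirally expressed fusions sorted by FACS into six bins by GFP to DsRed ratio, PSI derived from sequencing read proportions per bin multiplied by bin number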
- SETUP_CONDITIONS: c terminus: a fixed tail appended
Assign 1 (yes) whenever protein stability index does not fall below 2; assign 0 (no) whenever it does.

>  <MUTANT_LABEL>
P15H

>  <LABEL>
1 (yes)

$$$$
>  <MUTANT_LABEL>
N3K

>  <LABEL>
1 (yes)

$$$$
>  <MUTANT_LABEL>
E10A

>  <LABEL>
1 (yes)

$$$$
>  <MUTANT_LABEL>
E22D

>  <LABEL>
1 (yes)

$$$$
>  <MUTANT_LABEL>
T19F

>  <LABEL>
1 (yes)

$$$$
>  <MUTANT_LABEL>
K5E

>  <LABEL>
1 (yes)

$$$$
>  <MUTANT_LABEL>
E23A

>  <LABEL>
0 (no)

$$$$
>  <MUTANT_LABEL>
P24C

>  <LABEL>
1 (yes)

$$$$
>  <MUTANT_LABEL>
K5A

>  <LABEL>
1 (yes)

$$$$
>  <MUTANT_LABEL>
E23F

>  <LABEL>
0 (no)

$$$$
>  <MUTANT_LABEL>
T19L

>  <LABEL>
1 (yes)

$$$$
